molecular target: μ-opioid receptor (Rattus norvegicus, UniProt P33535); construct: from tissue; host or cells: rat (Wistar) forebrain homogenate, particulate preparation; assay: Rat brain μ-opioid receptor binding assay ([3H]DAMGO); conditions: rat forebrain membranes, [3H]DAMGO, 25° C.; read-out: μ-Opioid Receptor Binding Ki
Sequence (P33535 whole entry): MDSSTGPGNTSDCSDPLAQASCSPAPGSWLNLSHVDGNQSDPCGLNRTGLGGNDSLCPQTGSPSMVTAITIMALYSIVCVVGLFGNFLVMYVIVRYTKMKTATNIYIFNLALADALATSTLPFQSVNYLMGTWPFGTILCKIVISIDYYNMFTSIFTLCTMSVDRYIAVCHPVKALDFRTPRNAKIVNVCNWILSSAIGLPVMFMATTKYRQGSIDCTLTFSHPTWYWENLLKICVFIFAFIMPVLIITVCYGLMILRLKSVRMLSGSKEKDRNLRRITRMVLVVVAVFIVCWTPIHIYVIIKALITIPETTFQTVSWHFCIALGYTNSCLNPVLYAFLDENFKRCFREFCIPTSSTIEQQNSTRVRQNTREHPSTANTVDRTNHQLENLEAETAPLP
assayMetric: Ki (µM)
Provide the reading as a plain figure in µM.

The compound CCN(CC)C(=O)c1ccc(N(c2ccccc2)[C@H]2C3CCN(CC3)[C@@H]2C)cc1 showed Ki equal to 1.34
